# assay_text: Apparent oral clearance in wild-type Sprague-Dawley rat at 4 mg/kg, po
# Assay type: ADME, organism-based
# Design: dose 4 mg/kg, route oral
# cond: in vivo
metric: CL/F (mL/min/kg)
Value expressed in mL/min/kg; do not type the unit.

Problem: Name the recorded CL/F of the compound listed here: COc1ccc(-n2nc(C(N)=O)c3c2C(=O)N(c2ccc(N4CCCCC4=O)cc2)CC3)cc1
Result: 25

###

# assay_text: Apparent oral clearance in beagle dog at 5 mg/kg, po followed by activated charcoal administration 0.25 hrs post compound dosing
# Format: ADME, organism-based, Canis lupus familiaris
# Design: dose 5 mg/kg, route oral
# cond: in vivo
metric: CL/F (mL/min/kg)
Note: unit mL/min/kg is implicit; provide only the numeric part.

Problem: Tell us which CL/F value is on record for COc1ccc(-n2nc(C(N)=O)c3c2C(=O)N(c2ccc(N4CCCCC4=O)cc2)CC3)cc1
Result: 1.37

###

# assay_text: Renal clearance in bile duct-cannulated beagle dog at 1 mg/kg, iv administered as 5 mins infusion followed by activated charcoal administration 10 to 420 mins post compound dosing
# Format: ADME, organism-based, Canis lupus familiaris, Kidney
# Design: dose 1 mg/kg, route intravenous
# cond: in vivo
metric: CL renal (mL/min/kg)
Respond numerically; units are mL/min/kg and should not be typed.

Problem: Fill in CL renal for record COc1ccc(-n2nc(C(N)=O)c3c2[14C](=O)N(c2ccc(N4CCCCC4=O)cc2)CC3)cc1
Result: 0.122

###

# assay_text: Mean residence time in wild-type Sprague-Dawley rat at 4 mg/kg, po
# Type: ADME, organism-based
# Parameters: dose 4 mg/kg, route oral
# cond: in vivo
metric: MRT (h)
Numeric only. Scale: h

Problem: Return MRT for the following molecule: COc1ccc(-n2nc(C(N)=O)c3c2C(=O)N(c2ccc(N4CCCCC4=O)cc2)CC3)cc1
Result: 3.8

###

# assay_text: Plasma concentration in beagle dog at 5 mg/kg, po followed by activated charcoal administration 3 hrs post compound dosing measured at 8 hrs
# Assay type: ADME, organism-based, Canis lupus familiaris
# Parameters: dose 5 mg/kg, route oral
metric: concentration at 8 h (ng/mL)
Your answer should be a plain number; it is taken to be in ng/mL.

Problem: Return reported concentration at 8 h. Input compound: COc1ccc(-n2nc(C(N)=O)c3c2C(=O)N(c2ccc(N4CCCCC4=O)cc2)CC3)cc1
Result: 2190

###

# assay_text: Half life in bile duct-cannulated beagle dog at 1 mg/kg, iv administered as 5 mins infusion
# Assay type: ADME, organism-based, Canis lupus familiaris
# Design: dose 1 mg/kg, route intravenous
# cond: in vivo
metric: half-life (h)
Kindly provide the numeric value in h only, without the unit symbol.

Problem: Tell me measured half-life for COc1ccc(-n2nc(C(N)=O)c3c2[14C](=O)N(c2ccc(N4CCCCC4=O)cc2)CC3)cc1 please.
Result: 2.9

###

# assay_text: Volume of distribution at steady state in wild-type bile duct-cannulated Sprague-Dawley rat at 2 mg/kg, iv
# Assay type: ADME, organism-based
# Set-up: dose 2 mg/kg, route intravenous
# cond: in vivo, read-out: Vdss
metric: Vd (L/kg)
Enter your answer as a number in L/kg; do not include the unit.

Problem: State its Vd for this molecule: COc1ccc(-n2nc(C(N)=O)c3c2[14C](=O)N(c2ccc(N4CCCCC4=O)cc2)CC3)cc1
Result: 0.9

###

# assay_text: Drug recovery in feces of bile duct-cannulated Sprague-Dawley rat at 30 mg/kg, po measured up to 48 hrs
# Format: ADME, organism-based
# Parameters: dose 30 mg/kg, route oral
# cond: read-out: Drug recovery
metric: dose excreted at 48 h
Please answer in the form of a number followed by its unit of measurement.

Problem: Specify reported dose excreted at 48 h for the compound shown: COc1ccc(-n2nc(C(N)=O)c3c2[14C](=O)N(c2ccc(N4CCCCC4=O)cc2)CC3)cc1
Result: 69.8%

###

# assay_text: Clearance in P-gp-knockout Sprague-Dawley rat at 2 mg/kg, iv
# Format: ADME, organism-based
# Design: dose 2 mg/kg, route intravenous
# cond: in vivo
metric: clearance (mL/min/kg)
Dear colleague, please return just the value in mL/min/kg, with no unit written.

Problem: Answer with the recorded clearance for the molecule listed here: COc1ccc(-n2nc(C(N)=O)c3c2[14C](=O)N(c2ccc(N4CCCCC4=O)cc2)CC3)cc1
Result: 13.3

###

# assay_text: AUC (0 to infinity) in wild-type bile duct-cannulated Sprague-Dawley rat at 2 mg/kg, iv administered 0.125 hr post GF-120918 treatment
# Format: ADME, organism-based
# Parameters: time infinity, dose 2 mg/kg, route intravenous
# cond: in vivo, with GF-120918
metric: AUC(0-inf) (ng·h/mL)
Numbers only; they are read as ng·h/mL.

Problem: Retrieve AUC(0-inf) measured for COc1ccc(-n2nc(C(N)=O)c3c2[14C](=O)N(c2ccc(N4CCCCC4=O)cc2)CC3)cc1 and print it.
Result: 2840

###

# assay_text: Mean residence time in beagle dog at 5 mg/kg, po followed by activated charcoal administration 1 hr post compound dosing
# Type: ADME, organism-based, Canis lupus familiaris
# Parameters: dose 5 mg/kg, route oral
# cond: in vivo
metric: MRT (h)
The response must be a number in h with no trailing unit.

Problem: Supply recorded MRT for COc1ccc(-n2nc(C(N)=O)c3c2C(=O)N(c2ccc(N4CCCCC4=O)cc2)CC3)cc1 here.
Result: 5.9

###

# assay_text: AUC (0 to infinity) in wild-type 30 mins activated charcoal pre-treated bile duct-cannulated Sprague-Dawley rat at 2 mg/kg, iv followed by activated charcoal administration 5 to 180 mins post compound dosing
# Type: ADME, organism-based
# Design: time infinity, dose 2 mg/kg, route intravenous
# cond: in vivo
metric: AUC(0-inf) (ng·h/mL)
Give the number; ng·h/mL is assumed, so skip it.

Problem: Using the record for COc1ccc(-n2nc(C(N)=O)c3c2[14C](=O)N(c2ccc(N4CCCCC4=O)cc2)CC3)cc1 , state its measured AUC(0-inf).
Result: 1020

###

# assay_text: AUC (0 to infinity) in BCRP-knockout Sprague-Dawley rat at 2 mg/kg, iv
# Format: ADME, organism-based
# Set-up: time infinity, dose 2 mg/kg, route intravenous
# cond: plasma
metric: AUC(0-inf)
Write down the value, and be sure its unit follows.

Problem: Give the measured AUC(0-inf) for COc1ccc(-n2nc(C(N)=O)c3c2[14C](=O)N(c2ccc(N4CCCCC4=O)cc2)CC3)cc1
Result: 2.34 µg·h/mL

###

# assay_text: Oral bioavailability in beagle dog at 5 mg/kg followed by activated charcoal administration 3 hrs post compound dosing
# Type: ADME, organism-based, Canis lupus familiaris
# cond: in vivo
metric: bioavailability (%)
Entry rule: numbers only, all in %.

Problem: Tell me its bioavailability given COc1ccc(-n2nc(C(N)=O)c3c2C(=O)N(c2ccc(N4CCCCC4=O)cc2)CC3)cc1 as the entry.
Result: 77

###

# assay_text: Apparent oral clearance in Sprague-Dawley rat at 4 mg/kg, po administered 1 hr post GF-120918 treatment
# Format: ADME, organism-based
# Design: dose 4 mg/kg, route oral
# cond: in vivo, with GF-120918
metric: CL/F

Problem: Give me measured CL/F, please, for this molecule: COc1ccc(-n2nc(C(N)=O)c3c2C(=O)N(c2ccc(N4CCCCC4=O)cc2)CC3)cc1
Result: 5 mL/min/kg

###

# assay_text: Renal clearance in BCRP-knockout Sprague-Dawley rat at 2 mg/kg, iv
# Assay type: ADME, organism-based, Kidney
# Design: dose 2 mg/kg, route intravenous
# cond: in vivo
metric: CL renal
Answer with the value and then the unit.

Problem: Specify measured CL renal for COc1ccc(-n2nc(C(N)=O)c3c2[14C](=O)N(c2ccc(N4CCCCC4=O)cc2)CC3)cc1 .
Result: 5 mL/min/kg

###

# assay_text: Mean residence time in bile duct-cannulated beagle dog at 1 mg/kg, iv administered as 5 mins infusion followed by activated charcoal administration 10 to 420 mins post compound dosing
# Format: ADME, organism-based, Canis lupus familiaris
# Parameters: dose 1 mg/kg, route intravenous
# cond: in vivo
metric: MRT (h)
Response body: numeric value in h, unit text excluded.

Problem: Specify measured MRT for COc1ccc(-n2nc(C(N)=O)c3c2[14C](=O)N(c2ccc(N4CCCCC4=O)cc2)CC3)cc1 .
Result: 1.9

###

# assay_text: Cmax in wild-type bile duct-cannulated Sprague-Dawley rat at 2 mg/kg, iv administered 0.125 hr post GF-120918 treatment
# Assay type: ADME, organism-based
# Design: dose 2 mg/kg, route intravenous
# cond: in vivo, with GF-120918
metric: Cmax (ng/mL)
Please respond with the number in ng/mL and leave the unit unwritten.

Problem: Return Cmax for the following compound: COc1ccc(-n2nc(C(N)=O)c3c2[14C](=O)N(c2ccc(N4CCCCC4=O)cc2)CC3)cc1
Result: 1970
